Recorded IL-12 mRNA expression, +IFN % UTC, one value per entry.
Test system: IL-12 mRNA
Assay: IL-12 mRNA in LPS-activated primary murine macrophages
Assay type: cell-based, mouse
Conditions: 300 nM oligomeric compound, stimulation with IFN-gamma and LPS; average of 2 experiments; normalized to LPS-treated cells without oligomeric compound
In the oligonucleotide strings, read from the 5' end, every base follows the letter of its sugar. An asterisk marks phosphorothioate; unmarked linkages are phosphodiester. Other units and linkages are bracketed, terminal groups are in braces. A string of capitals states the bases alone. e = 2'-O-(2-methoxyethyl) (MOE); [5mC] = 5-methylcytosine

>  <substance>
327928 (antisense eA*eA*e[5mC]*e[5mC]*eG*eA*eT*eT*eT*e[5mC]*eA*eG*eA*eT*eG*eG*eT*eG*e[5mC]*eT*eA*eG) [compound 327928]

>  <targetDesc>
IL-12 mRNA

>  <IL-12 mRNA expression, +IFN % UTC (% UTC)>
61

$$$$
>  <substance>
327925 (antisense eT*eA*eG*e[5mC]*eT*eG*eG*eT*eT*eG*eA*eA*eG*eG*eG*eG*eA*e[5mC]*e[5mC]*eA*eA) [compound 327925]

>  <targetDesc>
IL-12 mRNA

>  <IL-12 mRNA expression, +IFN % UTC (% UTC)>
60

$$$$
>  <substance>
289606 (antisense CCUUCCCUGAAGGUUCCUCC; all 2'-MOE, all C 5-methyl, all phosphorothioate, T or U not given here) [compound 289606]

>  <targetDesc>
IL-12 mRNA

>  <IL-12 mRNA expression, +IFN % UTC (% UTC)>
129

$$$$
>  <substance>
327959 (antisense e[5mC]*eA*eG*e[5mC]*e[5mC]*eG*e[5mC]*eT*eG*eT*e[5mC]*eA*e[5mC]*eA*e[5mC]*eG*e[5mC]*eA*e[5mC]*eA*eG) [compound 327959]

>  <targetDesc>
IL-12 mRNA

>  <IL-12 mRNA expression, +IFN % UTC (% UTC)>
20

$$$$
>  <substance>
327920 (antisense eG*eA*eG*eA*e[5mC]*e[5mC]*e[5mC]*eA*eG*eT*eA*eG*e[5mC]*e[5mC]*eA*eG*eA*eT*eG*eT*eA*eG*e[5mC]*eT) [compound 327920]

>  <targetDesc>
IL-12 mRNA

>  <IL-12 mRNA expression, +IFN % UTC (% UTC)>
68

$$$$
>  <substance>
327924 (antisense eG*e[5mC]*eA*eA*eG*e[5mC]*e[5mC]*e[5mC]*eA*eG*eA*e[5mC]*e[5mC]*eG*e[5mC]*eA*eA*eA*eA*eA*eG) [compound 327924]

>  <targetDesc>
IL-12 mRNA

>  <IL-12 mRNA expression, +IFN % UTC (% UTC)>
88

$$$$
>  <substance>
341811 (antisense UCCACAUGGAGUUGCUGUUACA; all 2'-MOE, all phosphorothioate, methylation of C and T or U not given here) [compound 341811]

>  <targetDesc>
IL-12 mRNA

>  <IL-12 mRNA expression, +IFN % UTC (% UTC)>
88

$$$$
>  <substance>
328110 (antisense eG*eA*eT*eA*eA*eA*eG*e[5mC]*e[5mC]*eA*eA*eT*eA*eA*eA*e[5mC]*eT*eG*eT*e[5mC]*eA) [compound 328110]

>  <targetDesc>
IL-12 mRNA

>  <IL-12 mRNA expression, +IFN % UTC (% UTC)>
8

$$$$
>  <substance>
327893 (antisense eA*eA*e[5mC]*e[5mC]*eA*e[5mC]*eA*e[5mC]*eA*eA*e[5mC]*e[5mC]*eT*eA*e[5mC]*eT*eA*e[5mC]*e[5mC]*eT*e[5mC]*eA) [compound 327893]

>  <targetDesc>
IL-12 mRNA

>  <IL-12 mRNA expression, +IFN % UTC (% UTC)>
52

$$$$
>  <substance>
328117 (antisense eT*e[5mC]*e[5mC]*eA*e[5mC]*eA*eA*eA*eG*e[5mC]*eT*eG*eA*eA*e[5mC]*eA*eT*eG*eT*e[5mC]*eT) [compound 328117]

>  <targetDesc>
IL-12 mRNA

>  <IL-12 mRNA expression, +IFN % UTC (% UTC)>
72

$$$$
>  <substance>
328123 (antisense eT*eT*eA*e[5mC]*eA*eG*eG*eT*eG*e[5mC]*eT*eG*e[5mC]*eA*eA*e[5mC]*eT*eG*eG*eA*eA) [compound 328123]

>  <targetDesc>
IL-12 mRNA

>  <IL-12 mRNA expression, +IFN % UTC (% UTC)>
14

$$$$
>  <substance>
341800 (antisense AAGCCCAAAAGGAGAAUUCUUUG; all 2'-MOE, all phosphorothioate, methylation of C and T or U not given here) [compound 341800]

>  <targetDesc>
IL-12 mRNA

>  <IL-12 mRNA expression, +IFN % UTC (% UTC)>
100

$$$$
>  <substance>
327917 (antisense eT*e[5mC]*eA*eA*e[5mC]*eA*eT*e[5mC]*eA*eG*eT*e[5mC]*eT*eG*eA*eT*eA*eA*eG*e[5mC]*eT*eA) [compound 327917]

>  <targetDesc>
IL-12 mRNA

>  <IL-12 mRNA expression, +IFN % UTC (% UTC)>
35

$$$$
>  <substance>
327963 (antisense eA*eA*e[5mC]*e[5mC]*eT*eA*eT*e[5mC]*e[5mC]*eT*eG*eA*eA*eT*eT*eA*e[5mC]*eT*eT*eG*eA*eA) [compound 327963]

>  <targetDesc>
IL-12 mRNA

>  <IL-12 mRNA expression, +IFN % UTC (% UTC)>
23

$$$$
>  <substance>
327967 (antisense eA*e[5mC]*eT*eG*eT*eA*e[5mC]*eA*eA*eA*e[5mC]*eT*eA*e[5mC]*eT*eA*e[5mC]*e[5mC]*eT*e[5mC]*eA) [compound 327967]

>  <targetDesc>
IL-12 mRNA

>  <IL-12 mRNA expression, +IFN % UTC (% UTC)>
43

$$$$
>  <substance>
327887 (antisense eG*e[5mC]*eG*eA*e[5mC]*e[5mC]*eA*eT*eG*eG*e[5mC]*eT*eG*eT*eA*eG*eA*e[5mC]*eT*eG*eT*eT*eA) [compound 327887]

>  <targetDesc>
IL-12 mRNA

>  <IL-12 mRNA expression, +IFN % UTC (% UTC)>
33

$$$$
>  <substance>
327874 (antisense eG*e[5mC]*eT*eG*e[5mC]*eA*eA*eA*e[5mC]*eA*eT*e[5mC]*e[5mC]*eG*eA*e[5mC]*eT*eG*eA*eA*eA*eG) [compound 327874]

>  <targetDesc>
IL-12 mRNA

>  <IL-12 mRNA expression, +IFN % UTC (% UTC)>
15

$$$$
>  <substance>
327956 (antisense e[5mC]*eA*e[5mC]*eA*eG*eT*eT*eG*e[5mC]*e[5mC]*eA*eG*e[5mC]*eT*eG*eA*eG*eA*eT*eT*eA) [compound 327956]

>  <targetDesc>
IL-12 mRNA

>  <IL-12 mRNA expression, +IFN % UTC (% UTC)>
59

$$$$
>  <substance>
327931 (antisense eA*eA*e[5mC]*e[5mC]*eA*eT*eA*e[5mC]*eA*eA*e[5mC]*e[5mC]*eT*eA*e[5mC]*eT*eA*e[5mC]*e[5mC]*eT*e[5mC]*eA) [compound 327931]

>  <targetDesc>
IL-12 mRNA

>  <IL-12 mRNA expression, +IFN % UTC (% UTC)>
48

$$$$
>  <substance>
327923 (antisense eG*eA*eA*eA*eG*eA*eG*eA*e[5mC]*e[5mC]*eG*eG*eT*eT*e[5mC]*eA*e[5mC]*eT*eG*eT*eG*eA) [compound 327923]

>  <targetDesc>
IL-12 mRNA

>  <IL-12 mRNA expression, +IFN % UTC (% UTC)>
134

$$$$

---

Test system: Glut4
Test: Glut4 mRNA expression in adipocytes (real-time PCR)
Type: cell-based, human
Settings: differentiating adipocytes transfected with oligomeric compound; Table 75
In the oligonucleotide strings, read from the 5' end, every base follows the letter of its sugar. An asterisk marks phosphorothioate; unmarked linkages are phosphodiester. Other units and linkages are bracketed, terminal groups are in braces. A string of capitals states the bases alone. e = 2'-O-(2-methoxyethyl) (MOE); [5mC] = 5-methylcytosine

>  <substance>
344613 (ACACCAAUGCCCUAGGGGAUGCG; anti-miR; all 2'-MOE, all phosphorothioate, methylation of C and T or U not given here) [compound 344613]

>  <GLUT4 mRNA>
38 percentage of untreated control (UTC)

$$$$
>  <substance>
328095 (antisense eT*e[5mC]*eA*e[5mC]*eA*eG*eA*eG*eA*eA*eA*eA*e[5mC]*eA*eA*e[5mC]*eT*eG*eG*eT*eA) [compound 328095]

>  <GLUT4 mRNA>
98 percentage of untreated control (UTC)

$$$$
>  <substance>
346915 (ACAUCGUUACCAGACAGUGUUA; all 2'-MOE, all phosphorothioate, methylation of C and T or U not given here) [compound 346915]

>  <GLUT4 mRNA>
75 percentage of untreated control (UTC)

$$$$
>  <substance>
341804 (antisense ATCTGCACTGTCAGCACTTT; all 2'-MOE, all phosphorothioate, methylation of C not given here) [compound 341804]

>  <GLUT4 mRNA>
62 percentage of untreated control (UTC)

$$$$
>  <substance>
327929 (antisense eG*eA*eA*e[5mC]*eA*eG*eA*eT*eA*eG*eT*e[5mC]*eT*eA*eA*eA*e[5mC]*eA*e[5mC]*eT*eG*eG*eG) [compound 327929]

>  <GLUT4 mRNA>
49 percentage of untreated control (UTC)

$$$$
>  <substance>
327971 (antisense eG*eG*eA*eA*eA*eT*e[5mC]*e[5mC]*e[5mC]*eT*eG*eG*e[5mC]*eA*eA*eT*eG*eT*eG*eA*eT) [compound 327971]

>  <GLUT4 mRNA>
60 percentage of untreated control (UTC)

$$$$
>  <substance>
327885 (antisense eA*e[5mC]*eT*eA*e[5mC]*e[5mC]*eT*eG*e[5mC]*eA*e[5mC]*eT*eG*eT*eA*eA*eG*e[5mC]*eA*e[5mC]*eT*eT*eT*eG) [compound 327885]

>  <GLUT4 mRNA>
40 percentage of untreated control (UTC)

$$$$
>  <substance>
344340 (UGUCCGUGGUUCUACCCUGUGGUA; all 2'-MOE, all phosphorothioate, methylation of C and T or U not given here) [compound 344340]

>  <GLUT4 mRNA>
16 percentage of untreated control (UTC)

$$$$
>  <substance>
327910 (antisense eT*eG*eA*eT*eA*eG*e[5mC]*e[5mC]*e[5mC]*eT*eG*eT*eA*e[5mC]*eA*eA*eT*eG*e[5mC]*eT*eG*e[5mC]*eT) [compound 327910]

>  <GLUT4 mRNA>
16 percentage of untreated control (UTC)

$$$$
>  <substance>
328105 (antisense e[5mC]*e[5mC]*eT*e[5mC]*eA*eA*eT*eT*eA*eT*eT*eG*eG*eA*eA*eA*eT*e[5mC]*eA*e[5mC]*eA) [compound 328105]

>  <GLUT4 mRNA>
75 percentage of untreated control (UTC)

$$$$
>  <substance>
327923 (antisense eG*eA*eA*eA*eG*eA*eG*eA*e[5mC]*e[5mC]*eG*eG*eT*eT*e[5mC]*eA*e[5mC]*eT*eG*eT*eG*eA) [compound 327923]

>  <GLUT4 mRNA>
54 percentage of untreated control (UTC)

$$$$
>  <substance>
346907 (AUGUAUGUGGGACGGUAAACCA; all 2'-MOE, all phosphorothioate, methylation of C and T or U not given here) [compound 346907]

>  <GLUT4 mRNA>
37 percentage of untreated control (UTC)

$$$$
>  <substance>
340348 (antisense CTACCTGCACGAACAGCACTTT; all 2'-MOE, all phosphorothioate, methylation of C not given here) [compound 340348]

>  <GLUT4 mRNA>
52 percentage of untreated control (UTC)

$$$$
>  <substance>
327912 (antisense eA*eA*e[5mC]*eT*eA*eT*eA*e[5mC]*eA*eA*eT*e[5mC]*eT*eA*e[5mC]*eT*eA*e[5mC]*e[5mC]*eT*e[5mC]*eA) [compound 327912]

>  <GLUT4 mRNA>
79 percentage of untreated control (UTC)

$$$$
>  <substance>
327921 (antisense e[5mC]*eT*eT*e[5mC]*e[5mC]*eA*eG*eT*e[5mC]*eG*eG*eG*eG*eA*eT*eG*eT*eT*eT*eA*e[5mC]*eA) [compound 327921]

>  <GLUT4 mRNA>
36 percentage of untreated control (UTC)

$$$$
>  <substance>
344268 (antisense ACACAAAUUCGGUUCUACAGGG; all 2'-MOE, all phosphorothioate, methylation of C and T or U not given here) [compound 344268]

>  <GLUT4 mRNA>
22 percentage of untreated control (UTC)

$$$$
>  <substance>
348116 (UUCGCCCUCUCAACCCAGCUUUU; anti-miR; all 2'-MOE, all phosphorothioate, methylation of C and T or U not given here) [compound 348116]

>  <GLUT4 mRNA>
48 percentage of untreated control (UTC)

$$$$
>  <substance>
340354 (antisense UCAGACCGAGACAAGUGCAAUG; all 2'-MOE, all phosphorothioate, methylation of C and T or U not given here) [compound 340354]

>  <GLUT4 mRNA>
61 percentage of untreated control (UTC)

$$$$
>  <substance>
327891 (antisense eG*eG*e[5mC]*e[5mC]*eG*eT*eG*eA*e[5mC]*eT*eG*eG*eA*eG*eA*e[5mC]*eT*eG*eT*eT*eA) [compound 327891]

>  <GLUT4 mRNA>
47 percentage of untreated control (UTC)

$$$$
>  <substance>
346693 (CCCUCUGGUCAACCAGUCACA; all 2'-MOE, all phosphorothioate, methylation of C and T or U not given here) [compound 346693]

>  <GLUT4 mRNA>
65 percentage of untreated control (UTC)

$$$$
